- Test system: C. sporogenes CBC5
- test.method.notes: Deferred antagonism assay
- Format: cell-based, Clostridium sporogenes
- Parameters: key: + = Enhanced bioactivity relative to control; − = Bioactivity equal to or less than control; NA = no activity evident
- particulars: producing strain
Ends that are not written are not given here.
readout.label: Bioactivity relative to control

NisinA M21G (ITSISLCTPGCKTGALMGCNGKTATCHCSIHVSK; not fully specified; also: lantibiotic: lanthionine rings and dehydro residues not placed; UniProt P13068 24-57, looked up, variant M21G) [nisin A derivative, hinge substitution M21G]
+
K22F: nisin A derivative, hinge substitution K22F (ITSISLCTPGCKTGALMGCNMFTATCHCSIHVSK; cysteine pairing not given here; also: lantibiotic nisin-A; UniProt P13068 24-57, looked up, variant K22F)
−

----------
- System: C. sporogenes CBC5
- test.method.notes: Deferred antagonism assay
- Assay type: cell-based, Clostridium sporogenes
- Set-up: key: + = Enhanced bioactivity relative to control; − = Bioactivity equal to or less than control; NA = no activity evident
- particulars: producing strain
Ends that are not written are not given here.
readout.label: Bioactivity relative to control

NisinA M21S (ITSISLCTPGCKTGALMGCNSKTATCHCSIHVSK; not fully specified; also: lantibiotic nisin: dehydrated residues and thioether rings not placed; UniProt P13068 24-57, looked up, variant M21S) [nisin A derivative, hinge substitution M21S]
+
NisinA N20F (ITSISLCTPGCKTGALMGCFMKTATCHCSIHVSK; not fully specified; also: lantibiotic nisin: dehydrated residues and thioether rings not placed; UniProt P13068 24-57, looked up, variant N20F) [nisin A derivative, hinge substitution N20F]
−
NisinA K22G (ITSISLCTPGCKTGALMGCNMGTATCHCSIHVSK; cysteine pairing not given here; also: lantibiotic nisin-A; UniProt P13068 24-57, looked up, variant K22G) [nisin A derivative, hinge substitution K22G]
−

----------
- Tested on: Listeria monocytogenes LO28
- test.method.notes: Deferred antagonism assay
- Format: cell-based
- particulars: nisin strain; L. monocytogenes LO28
Ends that are not written are not given here.
readout.label: Activity score (zone)

NisinA K22A (ITSISLCTPGCKTGALMGCNMATATCHCSIHVSK; not fully specified; also: lantibiotic: lanthionine rings and dehydro residues not placed; UniProt P13068 24-57, looked up, variant K22A) [nisin A derivative, hinge substitution K22A]
+ (+, 1-5 mm zone)
NisinA M21G (ITSISLCTPGCKTGALMGCNGKTATCHCSIHVSK; not fully specified; also: lantibiotic: lanthionine rings and dehydro residues not placed; UniProt P13068 24-57, looked up, variant M21G) [nisin A derivative, hinge substitution M21G]
+ (+, 1-5 mm zone)

----------
- Test system: Listeria monocytogenes 33115
- test.method.notes: Deferred antagonism assay
- Type: cell-based
- Parameters: key: −, no inhibition; (+), clear zone directly above the colony; +, 1-5 mm zone; ++, 6-10 mm zone; +++, <10 mm zone
- particulars: nisin strain; L. monocytogenes 33115
Ends that are not written are not given here.
readout.label: Activity score (zone)

NisinA M21S (ITSISLCTPGCKTGALMGCNSKTATCHCSIHVSK; not fully specified; also: lantibiotic nisin: dehydrated residues and thioether rings not placed; UniProt P13068 24-57, looked up, variant M21S) [nisin A derivative, hinge substitution M21S]
(+)
NisinA M21I (ITSISLCTPGCKTGALMGCNIKTATCHCSIHVSK; not fully specified; also: lantibiotic: lanthionine rings and dehydro residues not placed; UniProt P13068 24-57, looked up, variant M21I) [nisin A derivative, hinge substitution M21I]
−
NisinA M21G (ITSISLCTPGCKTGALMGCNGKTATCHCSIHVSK; not fully specified; also: lantibiotic: lanthionine rings and dehydro residues not placed; UniProt P13068 24-57, looked up, variant M21G) [nisin A derivative, hinge substitution M21G]
−
